Collected Ki values appear next to each entry.
Biological target: human NEP (Homo sapiens, UniProt P08473)
Construct: purchased R&D Systems, Minneapolis, Minn; 1182-ZN
Sequence (P08473 whole entry): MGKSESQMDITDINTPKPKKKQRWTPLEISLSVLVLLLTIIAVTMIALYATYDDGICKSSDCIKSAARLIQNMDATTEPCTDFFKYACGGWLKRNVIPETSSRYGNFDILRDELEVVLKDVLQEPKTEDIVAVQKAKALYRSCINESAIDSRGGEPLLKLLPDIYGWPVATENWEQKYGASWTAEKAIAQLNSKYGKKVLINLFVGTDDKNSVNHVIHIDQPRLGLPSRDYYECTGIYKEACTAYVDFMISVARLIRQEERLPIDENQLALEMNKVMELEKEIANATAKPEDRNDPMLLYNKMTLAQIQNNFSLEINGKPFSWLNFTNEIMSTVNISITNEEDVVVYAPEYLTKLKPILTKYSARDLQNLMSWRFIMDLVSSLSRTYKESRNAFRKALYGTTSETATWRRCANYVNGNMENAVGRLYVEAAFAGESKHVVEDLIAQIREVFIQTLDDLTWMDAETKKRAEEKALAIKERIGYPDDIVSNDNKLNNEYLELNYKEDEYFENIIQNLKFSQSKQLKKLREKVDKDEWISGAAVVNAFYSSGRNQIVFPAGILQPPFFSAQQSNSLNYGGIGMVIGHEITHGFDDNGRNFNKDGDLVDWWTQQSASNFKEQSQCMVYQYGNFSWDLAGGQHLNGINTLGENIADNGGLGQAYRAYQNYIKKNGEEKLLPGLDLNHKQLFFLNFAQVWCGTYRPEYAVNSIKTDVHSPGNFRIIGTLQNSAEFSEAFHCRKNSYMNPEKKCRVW
Assay: In vitro enzyme inhibition assay at human NEP (fluorogenic peptide substrate)
Assay type: biochemical
Conditions: recombinant human NEP; substrate Mca-D-Arg-Arg-Leu-Dap-(Dnp)-OH 10 μM; 37° C.; values given as ranges; read-out: pKi values at human NEP (converted)
Protocol: The inhibitory activities of compounds at human and rat neprilysin (EC 3.4.24.11; NEP) and human angiotensin converting enzyme (ACE) were determined using in vitro assays as described below. Recombinant human NEP and recombinant human ACE were obtained commercially (R&D Systems, Minneapolis, Minn., catalog numbers 1182-ZN and 929-ZN, respectively). […]
measured-quantity: Ki

- COc1cc(F)c(Cn2nc(C(=O)N[C@H](Cc3ccccc3Cl)[C@@H](O)C(=O)O)cc2C(=O)O)c(F)c1 [Example 2-32]: ≤ 1 nM
- Cc1cccc(C)c1Cn1nc(C(=O)N[C@H](Cc2ccccc2Cl)[C@@H](O)C(=O)O)cc1C(=O)O [Example 2-43]: 1.26 to 10 nM
- O=C(N[C@H](Cc1ccccc1Cl)[C@@H](O)C(=O)O)c1cc(C(=O)O)n(Cc2ccc(C(F)(F)F)cc2)n1 [Example 2-25]: 1.26 to 10 nM
- CC(C)CN(C)C(=O)c1cc(C(=O)N[C@H](Cc2ccccc2Cl)[C@@H](O)C(=O)O)n[nH]1 [Example 2-56]: 12.6 to 100 nM
- O=C(N[C@H](Cc1ccccc1C(F)(F)F)[C@@H](O)C(=O)O)c1cc(C(=O)N2CC[C@H](C(=O)O)C2)[nH]n1 [Example 6-11]: 1.26 to 10 nM
- O=C(N[C@H](Cc1ccccc1Cl)[C@@H](O)C(=O)O)c1cc(C(=O)O)n(Cc2c(F)cc(F)cc2F)n1 [Example 2-42]: 1.26 to 10 nM
- CC(=O)Nc1cccc(-c2cc(C(=O)N[C@H](Cc3ccccc3Cl)[C@@H](O)C(=O)O)n[nH]2)c1 [Example 2-47]: 12.6 to 100 nM
